Measured IC50 accompanies every entry in the list below.
biological target: Full length G2019 human LRRK2 (Homo sapiens, UniProt Q5S007); construct: purified recombinant Full length Flag-LRRK2 in assay buffer; made in house; host or cells: HEK293 6E cells transduced with BacMam virus (virus generated in Sf9 cells); test: Full length G2019 human LRRK2 Inhibition Mass Spectrometry assay; assay type: biochemical; details: LRRKtide substrate, RapidFire mass spectrometry; read-out: pIC50 in the Full length G2019 human LRRK2 Inhibition Mass Spectrometry assay (converted)
Sequence (Q5S007 with tags, fused parts or gaps R50H): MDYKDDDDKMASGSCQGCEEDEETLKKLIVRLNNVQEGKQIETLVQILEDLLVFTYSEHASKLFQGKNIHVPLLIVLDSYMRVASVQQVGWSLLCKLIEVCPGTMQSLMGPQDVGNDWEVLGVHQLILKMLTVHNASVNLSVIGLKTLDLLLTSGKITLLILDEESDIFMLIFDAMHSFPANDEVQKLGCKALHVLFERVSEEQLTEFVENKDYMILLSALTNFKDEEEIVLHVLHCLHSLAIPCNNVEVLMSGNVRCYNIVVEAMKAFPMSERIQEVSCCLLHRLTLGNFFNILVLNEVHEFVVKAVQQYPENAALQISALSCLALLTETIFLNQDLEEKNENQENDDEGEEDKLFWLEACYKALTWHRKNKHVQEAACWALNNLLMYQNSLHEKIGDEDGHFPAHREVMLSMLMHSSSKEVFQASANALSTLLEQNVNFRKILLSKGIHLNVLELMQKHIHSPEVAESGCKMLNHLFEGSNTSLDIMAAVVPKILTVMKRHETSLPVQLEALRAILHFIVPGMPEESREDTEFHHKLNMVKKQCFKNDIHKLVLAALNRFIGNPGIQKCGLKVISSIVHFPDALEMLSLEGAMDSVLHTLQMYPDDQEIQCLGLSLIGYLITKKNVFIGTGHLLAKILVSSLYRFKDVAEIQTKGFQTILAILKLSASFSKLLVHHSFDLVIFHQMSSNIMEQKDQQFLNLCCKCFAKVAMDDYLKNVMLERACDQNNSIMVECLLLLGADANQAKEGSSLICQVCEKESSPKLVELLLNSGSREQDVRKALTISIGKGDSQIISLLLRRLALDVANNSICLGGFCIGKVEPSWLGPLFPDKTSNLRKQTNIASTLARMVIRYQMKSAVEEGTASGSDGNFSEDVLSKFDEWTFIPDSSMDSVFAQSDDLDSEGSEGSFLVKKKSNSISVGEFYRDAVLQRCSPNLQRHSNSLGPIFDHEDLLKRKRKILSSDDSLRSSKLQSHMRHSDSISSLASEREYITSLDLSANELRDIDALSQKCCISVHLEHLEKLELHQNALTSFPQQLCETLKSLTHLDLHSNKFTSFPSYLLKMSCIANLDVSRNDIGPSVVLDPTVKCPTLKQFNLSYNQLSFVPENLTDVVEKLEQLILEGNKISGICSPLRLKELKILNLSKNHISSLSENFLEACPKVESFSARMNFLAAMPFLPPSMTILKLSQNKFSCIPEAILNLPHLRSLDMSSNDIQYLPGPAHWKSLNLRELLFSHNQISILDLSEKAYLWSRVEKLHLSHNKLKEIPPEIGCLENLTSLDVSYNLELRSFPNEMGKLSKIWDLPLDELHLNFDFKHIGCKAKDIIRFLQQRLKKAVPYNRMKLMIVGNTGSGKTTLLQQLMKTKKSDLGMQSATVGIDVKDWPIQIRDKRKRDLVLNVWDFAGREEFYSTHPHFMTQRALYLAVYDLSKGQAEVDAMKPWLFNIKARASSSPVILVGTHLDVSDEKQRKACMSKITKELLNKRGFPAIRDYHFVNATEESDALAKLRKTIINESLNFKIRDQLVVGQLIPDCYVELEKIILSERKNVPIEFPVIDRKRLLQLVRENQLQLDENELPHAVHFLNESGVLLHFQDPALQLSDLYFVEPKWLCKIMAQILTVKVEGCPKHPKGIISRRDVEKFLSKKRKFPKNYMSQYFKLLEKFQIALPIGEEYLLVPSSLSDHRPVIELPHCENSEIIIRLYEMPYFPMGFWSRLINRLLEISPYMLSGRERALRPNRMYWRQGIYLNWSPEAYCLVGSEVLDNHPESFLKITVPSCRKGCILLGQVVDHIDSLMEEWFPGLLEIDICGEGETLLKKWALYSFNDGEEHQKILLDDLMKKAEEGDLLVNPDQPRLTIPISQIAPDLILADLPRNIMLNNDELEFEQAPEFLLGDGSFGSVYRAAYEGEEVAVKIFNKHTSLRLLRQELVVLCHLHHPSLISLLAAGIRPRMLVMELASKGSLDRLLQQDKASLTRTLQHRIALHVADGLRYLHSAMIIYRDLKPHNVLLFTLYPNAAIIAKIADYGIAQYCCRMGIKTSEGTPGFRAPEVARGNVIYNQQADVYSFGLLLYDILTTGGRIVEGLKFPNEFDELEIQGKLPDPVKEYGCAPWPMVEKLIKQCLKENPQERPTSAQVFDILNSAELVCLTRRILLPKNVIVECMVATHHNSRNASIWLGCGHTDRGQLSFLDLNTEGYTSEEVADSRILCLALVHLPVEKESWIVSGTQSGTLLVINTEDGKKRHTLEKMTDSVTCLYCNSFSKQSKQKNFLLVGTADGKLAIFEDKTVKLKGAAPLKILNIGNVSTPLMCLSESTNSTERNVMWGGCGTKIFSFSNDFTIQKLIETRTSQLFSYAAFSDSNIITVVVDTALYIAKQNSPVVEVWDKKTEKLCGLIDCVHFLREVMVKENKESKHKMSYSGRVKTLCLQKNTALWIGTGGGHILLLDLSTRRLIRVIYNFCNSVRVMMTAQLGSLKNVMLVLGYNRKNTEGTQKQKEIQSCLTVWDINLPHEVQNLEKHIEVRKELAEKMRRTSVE

{"columns": ["COMPOUND", "IC50"],
 "data": [
  ["Cc1nc(N2CCOC(C(C)O)C2)cc(-n2ncc3cc(C)c(C4CCN(C5CCOC5)CC4)cc32)n1 (single isomer, unassigned) [Example E135]", "≤ 0.1 µM"],
  ["COc1nc(N2CCOCC2)cc(-n2ncc3cc(C)c(C4CCN(C5CCOC5)CC4F)cc32)n1 (single isomer, unassigned) [Example E125]", "≤ 1 µM"],
  ["Cc1nc(N[C@H]2C[C@@H](O)C2)cc(-n2ncc3cc(C)c(C4CCN(C5CCOC5)CC4)cc32)n1 (single isomer, unassigned) [Example E133]", "≤ 1 µM"]
]}

---

target: recombinant full length LRRK2 (Homo sapiens, UniProt Q5S007); construct: A BacMam virus expressing full length recombinant LRRK2 was purchased from Invitrogen; host or cells: SH-SY5Y human neuroblastoma cells transduced with BacMam LRRK2 virus (MOI 50); assay: Recombinant cellular LRRK2 AlphaScreen assay; assay type: cell-based; settings: LRRK2 Ser935 phosphorylation, SH-SY5Y cells over-expressing recombinant full length LRRK2; read-out: pIC50 in the recombinant cellular LRRK2 AlphaScreen assay (converted)
Sequence (Q5S007 whole entry): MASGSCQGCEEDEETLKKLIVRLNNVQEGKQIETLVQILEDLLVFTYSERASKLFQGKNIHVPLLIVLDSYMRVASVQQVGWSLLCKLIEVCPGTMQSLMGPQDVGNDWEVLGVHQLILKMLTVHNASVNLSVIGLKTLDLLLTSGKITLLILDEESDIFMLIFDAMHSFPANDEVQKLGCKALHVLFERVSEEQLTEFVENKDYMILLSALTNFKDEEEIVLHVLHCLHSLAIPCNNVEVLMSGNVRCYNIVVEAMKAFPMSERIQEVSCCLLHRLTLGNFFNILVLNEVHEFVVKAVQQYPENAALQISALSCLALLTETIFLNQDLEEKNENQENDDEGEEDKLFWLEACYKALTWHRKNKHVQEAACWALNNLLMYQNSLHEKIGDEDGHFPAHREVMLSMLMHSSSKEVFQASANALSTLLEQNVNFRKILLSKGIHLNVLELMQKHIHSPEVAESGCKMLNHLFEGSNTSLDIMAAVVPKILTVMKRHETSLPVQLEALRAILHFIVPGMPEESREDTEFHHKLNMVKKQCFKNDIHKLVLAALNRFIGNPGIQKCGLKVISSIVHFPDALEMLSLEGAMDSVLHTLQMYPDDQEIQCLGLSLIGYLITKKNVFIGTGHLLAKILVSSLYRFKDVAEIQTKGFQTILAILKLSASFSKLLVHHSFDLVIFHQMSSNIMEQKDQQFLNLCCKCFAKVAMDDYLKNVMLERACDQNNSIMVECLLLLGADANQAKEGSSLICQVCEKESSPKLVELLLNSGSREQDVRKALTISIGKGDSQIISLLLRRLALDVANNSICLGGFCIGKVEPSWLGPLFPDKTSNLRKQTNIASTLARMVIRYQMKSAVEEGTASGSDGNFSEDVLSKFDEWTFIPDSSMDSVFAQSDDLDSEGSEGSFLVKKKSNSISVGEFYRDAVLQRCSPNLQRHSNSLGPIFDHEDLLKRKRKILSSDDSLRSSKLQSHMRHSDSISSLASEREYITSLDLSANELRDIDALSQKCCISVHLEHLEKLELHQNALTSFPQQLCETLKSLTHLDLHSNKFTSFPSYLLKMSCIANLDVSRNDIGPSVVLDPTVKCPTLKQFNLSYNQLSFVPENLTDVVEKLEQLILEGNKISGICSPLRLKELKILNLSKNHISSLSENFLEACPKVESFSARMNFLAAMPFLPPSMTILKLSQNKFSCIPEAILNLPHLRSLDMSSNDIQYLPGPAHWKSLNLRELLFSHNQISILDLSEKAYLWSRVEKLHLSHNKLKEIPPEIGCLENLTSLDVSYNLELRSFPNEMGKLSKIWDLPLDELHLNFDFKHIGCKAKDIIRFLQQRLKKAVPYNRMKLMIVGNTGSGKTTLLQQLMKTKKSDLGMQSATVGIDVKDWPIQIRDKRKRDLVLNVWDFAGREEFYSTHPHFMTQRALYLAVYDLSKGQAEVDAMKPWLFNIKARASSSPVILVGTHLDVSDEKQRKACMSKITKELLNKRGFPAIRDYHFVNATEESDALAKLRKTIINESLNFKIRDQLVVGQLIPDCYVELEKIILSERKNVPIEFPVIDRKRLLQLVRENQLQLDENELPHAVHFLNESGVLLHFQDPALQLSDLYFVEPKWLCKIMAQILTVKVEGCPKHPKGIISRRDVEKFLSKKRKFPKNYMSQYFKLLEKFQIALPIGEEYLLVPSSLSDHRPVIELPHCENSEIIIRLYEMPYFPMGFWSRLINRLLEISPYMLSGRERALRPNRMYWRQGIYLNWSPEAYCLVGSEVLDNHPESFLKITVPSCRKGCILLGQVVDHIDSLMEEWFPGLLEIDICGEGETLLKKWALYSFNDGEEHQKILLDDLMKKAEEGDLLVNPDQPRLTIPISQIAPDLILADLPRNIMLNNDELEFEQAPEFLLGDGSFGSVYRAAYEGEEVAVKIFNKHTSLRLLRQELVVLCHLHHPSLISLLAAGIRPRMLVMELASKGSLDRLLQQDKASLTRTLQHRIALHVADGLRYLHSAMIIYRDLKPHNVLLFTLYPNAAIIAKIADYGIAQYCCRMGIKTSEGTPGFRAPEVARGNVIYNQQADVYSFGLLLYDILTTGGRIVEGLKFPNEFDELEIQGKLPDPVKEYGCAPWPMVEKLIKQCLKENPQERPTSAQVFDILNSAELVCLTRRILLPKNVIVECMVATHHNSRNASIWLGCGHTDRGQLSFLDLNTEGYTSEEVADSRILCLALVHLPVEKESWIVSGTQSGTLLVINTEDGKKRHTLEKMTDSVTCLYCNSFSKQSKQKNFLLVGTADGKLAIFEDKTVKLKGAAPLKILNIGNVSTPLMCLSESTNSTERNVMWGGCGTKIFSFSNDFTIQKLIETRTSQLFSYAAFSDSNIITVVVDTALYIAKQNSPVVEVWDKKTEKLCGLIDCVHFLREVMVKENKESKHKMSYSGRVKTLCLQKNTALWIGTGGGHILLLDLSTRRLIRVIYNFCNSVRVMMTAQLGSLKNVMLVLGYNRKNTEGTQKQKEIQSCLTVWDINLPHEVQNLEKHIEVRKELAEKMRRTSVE
EXPERIMENTAL ENDPOINT: IC50

{"columns": ["COMPOUND", "EXPERIMENTAL ENDPOINT", "READOUT VALUE"],
 "data": [
  ["COc1nc(N2CCNC(=O)C2)cc(-n2ncc3cc(C)c(C4CCN(C5CCOC5)CC4F)cc32)n1 (single isomer, unassigned)", "IC50", "≤ 10 nM"],
  ["Cc1nc(N2CCO[C@H](CO)C2)cc(-n2ncc3cc(C)c(C4CCN(C5CCOC5)CC4F)cc32)n1 (single isomer, unassigned) [Example E104]", "IC50", "≤ 100 nM"],
  ["Cc1nc(N2CCOC(C(C)O)C2)cc(-n2ncc3cc(C)c(C4CCN(C5CCOC5)CC4)cc32)n1 (single isomer, unassigned) [Example E141]", "IC50", "≤ 1000 nM"],
  ["COc1nc(N2CCOCC2)cc(-n2ncc3cc(C)c(C4CCN(C5CCOC5)CC4F)cc32)n1 (single isomer, unassigned) [Example E116]", "IC50", "≤ 100 nM"],
  ["Cc1nc(N2CCO[C@H](CO)C2)cc(-n2ncc3cc(C)c(C4CCN(C5COCC5F)CC4)cc32)n1 (single isomer, unassigned) [Example E150]", "IC50", "≤ 100 nM"],
  ["COc1nc(N2CCO[C@H](CO)C2)cc(-n2ncc3cc(C)c(C4CCN(C5CCOC5)CC4F)cc32)n1 (single isomer, unassigned) [Example E122]", "IC50", "≤ 10 nM"],
  ["Cc1nc(N2CCO[C@@H](CO)C2)cc(-n2ncc3cc(Cl)c(C4CCN(C5CCOC5)CC4)cc32)n1 (single isomer, unassigned) [Example E130]", "IC50", "≤ 100 nM"],
  ["Cc1nc(N2CCOC(C(C)O)C2)cc(-n2ncc3cc(C)c(C4CCN(C5CCOC5)CC4)cc32)n1 (single isomer, unassigned) [Example E135]", "IC50", "≤ 100 nM"],
  ["COc1nc(N2CC(C(C)O)C2)cc(-n2ncc3cc(C)c(C4CCN(C5CCOC5)CC4)cc32)n1 (single isomer, unassigned) [Example E98]", "IC50", "≤ 100 nM"],
  ["Cc1nc(N2CCO[C@@H](CO)C2)cc(-n2ncc3cc(C)c(C4CCN(C5CCOC5)CC4F)cc32)n1 (single isomer, unassigned) [Example E102]", "IC50", "≤ 1000 nM"],
  ["COc1nc(N2CCOCC2)cc(-n2ncc3cc(C)c(C4CCN(C5CCOC5)CC4F)cc32)n1 (single isomer, unassigned) [Example E115]", "IC50", "≤ 10 nM"],
  ["Cc1nc(N[C@H]2CCOC2)cc(-n2ncc3cc(C)c(C4CCN(C5CCOC5)CC4)cc32)n1 (stereo partly drawn)", "IC50", "≤ 1000 nM"]
]}

---

Listed here are compounds together with their documented IC50.
target: recombinant full length LRRK2 (Homo sapiens, UniProt Q5S007); construct: A BacMam virus expressing full length recombinant LRRK2 was purchased from Invitrogen; host or cells: SH-SY5Y human neuroblastoma cells transduced with BacMam LRRK2 virus (MOI 50); experiment: Recombinant cellular LRRK2 AlphaScreen assay; format: cell-based; conditions: LRRK2 Ser935 phosphorylation, SH-SY5Y cells over-expressing recombinant full length LRRK2; read-out: pIC50 in the recombinant cellular LRRK2 AlphaScreen assay (converted)

{"columns": ["COMPOUND", "IC50"],
 "data": [
  ["Cc1nc(N2CC(C)OC(CO)C2)cc(-n2ncc3cc(C)c(C4CCN(C5CCOC5)CC4)cc32)n1 (single isomer, unassigned)", "≤ 100 nM"],
  ["Cc1nc(OC2CC(O)C2)cc(-n2ncc3cc(C)c(C4CCN(C5CCOC5)CC4)cc32)n1 (single isomer, unassigned)", "≤ 1000 nM"],
  ["[2H]c1nn(-c2cc(N3CCO[C@@H](CO)C3)nc(C)n2)c2cc(C3CCN([C@@H]4CCOC4)CC3)c(C)cc12", "≤ 1000 nM"],
  ["Cc1nc(N2CCO[C@H](CO)C2)cc(-n2ncc3cc(C)c(C4CCN(C5COCC5C)CC4)cc32)n1 (stereo partly drawn)", "≤ 1000 nM"],
  ["[2H]C1(N2CCC(c3cc4c(cnn4-c4cc(N5CCO[C@@H](CO)C5)nc(C)n4)cc3C)CC2)CCOC1 (single isomer, unassigned) [Example E35]", "200 nM"],
  ["Cc1nc(N2CC(CC(C)O)C2)cc(-n2ncc3cc(Cl)c(C4CCN(C5CCOC5)CC4)cc32)n1 (single isomer, unassigned)", "≤ 100 nM"]
]}

---

molecular target: Full length G2019 human LRRK2 (Homo sapiens, UniProt Q5S007); construct: purified recombinant Full length Flag-LRRK2 in assay buffer; made in house; host or cells: HEK293 6E cells transduced with BacMam virus (virus generated in Sf9 cells); assay: Full length G2019 human LRRK2 Inhibition Mass Spectrometry assay; assay type: biochemical; conditions: LRRKtide substrate, RapidFire mass spectrometry; read-out: pIC50 in the Full length G2019 human LRRK2 Inhibition Mass Spectrometry assay (converted)
The entries below are paired with their reported IC50.
EXPERIMENTAL ENDPOINT: IC50

{"columns": ["COMPOUND", "EXPERIMENTAL ENDPOINT", "READOUT VALUE"],
 "data": [
  ["COc1nc(N2CCO[C@@H](CO)C2)cc(-n2ncc3cc(C)c(C4CCN(C5CCOC5)CC4F)cc32)n1 (single isomer, unassigned) [Example E120]", "IC50", "≤ 10 nM"],
  ["Cc1nc(N2CC(C)(O)C2)cc(-n2ncc3cc(Cl)c(C4CCN(C5CCOC5)CC4)cc32)n1 (single isomer, unassigned) [Example E128]", "IC50", "≤ 1000 nM"],
  ["COc1nc(N2CCO[C@@H](CO)C2)cc(-n2ncc3cc(C)c(C4CCN(C5CCOC5)CC4F)cc32)n1 (single isomer, unassigned) [Example E118]", "IC50", "≤ 10 nM"]
]}

---

molecular target: recombinant full length LRRK2 (Homo sapiens, UniProt Q5S007); construct: A BacMam virus expressing full length recombinant LRRK2 was purchased from Invitrogen; host or cells: SH-SY5Y human neuroblastoma cells transduced with BacMam LRRK2 virus (MOI 50); assay: Recombinant cellular LRRK2 AlphaScreen assay; type: cell-based; details: LRRK2 Ser935 phosphorylation, SH-SY5Y cells over-expressing recombinant full length LRRK2; read-out: pIC50 in the recombinant cellular LRRK2 AlphaScreen assay (converted)
# reported IC50; entries follow
EXPERIMENTAL ENDPOINT: IC50

{"columns": ["COMPOUND", "EXPERIMENTAL ENDPOINT", "READOUT VALUE"],
 "data": [
  ["COc1nc(N2CCOCC2)cc(-n2ncc3cc(C)c(C4CCN(C5CCOC5)CC4F)cc32)n1 (single isomer, unassigned) [Example E126]", "IC50", "≤ 100 nM"],
  ["Cc1nc(N2CCO[C@H](CO)C2)cc(-n2ncc3cc(Cl)c(C4CCN(C5CCOC5)CC4)cc32)n1 (single isomer, unassigned) [Example E25]", "IC50", "≤ 100 nM"],
  ["COc1nc(N2CCO[C@@H](CO)C2)cc(-n2ncc3cc(C)c(C4CCN(C5CCOC5)CC4F)cc32)n1 (single isomer, unassigned) [Example E117]", "IC50", "≤ 10 nM"],
  ["Cc1nc(N2CCOC(C(C)O)C2)cc(-n2ncc3cc(C)c(C4CCN(C5CCOC5)CC4)cc32)n1 (single isomer, unassigned) [Example E140]", "IC50", "≤ 1000 nM"],
  ["COc1nc(N2CC[C@@H](O)C2)cc(-n2ncc3cc(C)c(C4CCN(C5CCOC5)CC4)cc32)n1 (single isomer, unassigned) [Example E19]", "IC50", "≤ 100 nM"],
  ["COc1nc(N2CCO[C@@H](CO)C2)cc(-n2ncc3cc(C)c(C4CCN(C5CCOC5)CC4F)cc32)n1 (single isomer, unassigned) [Example E118]", "IC50", "≤ 10 nM"]
]}
